tested on: P. aeruginosa CDC-0095; experiment: microbe, parasite or virus in culture; format: cell-based; details: Pseudomonas aeruginosa, CDC0095, read-out: Minimum inhibitory concentration, P. aeruginosa CDC-0095
experimental-endpoint: MIC

In the examples that follow, each entry is paired with its recorded MIC.
INSERT INTO measurements (compound, experimental_endpoint, measured_result) VALUES
  ('O=C(NCCCN1CCN(C(=O)N[C@@H](C(=O)N[C@H]2Cc3ccc(F)c(C(=O)O)c3OB2O)c2cc(F)c(O)c(O)c2Cl)C(=O)C1=O)c1cc(F)c(O)cc1F (single isomer, unassigned)', 'MIC', '< 1 µg/mL'),
  ('O=C(NCCCN1CCN(C(=O)NC(C(=O)N[C@H]2Cc3ccc(F)c(C(=O)O)c3OB2O)c2cc(F)c(O)c(O)c2Cl)C(=O)C1=O)c1ccncc1 (some centres unmarked)', 'MIC', '< 1 µg/mL'),
  ('NCc1cccc(C(=O)N2CCC(N3CCN(C(=O)N[C@@H](C(=O)N[C@H]4Cc5ccc(F)c(C(=O)O)c5OB4O)c4cc(F)c(O)c(O)c4Cl)C3=O)CC2)c1', 'MIC', '2 to 4 µg/mL');

Turning to the following compound.
Field: MIC (P. aeruginosa CDC-0095). Entry: O=C(O)c1c(F)ccc2c1OB(O)[C@@H](NC(=O)[C@H](NC(=O)N1CCN(C3CCN(C(=O)Nc4ccc(O)cc4)CC3)C(=O)C1=O)c1cc(F)c(O)c(O)c1Cl)C2 (single isomer, unassigned)
2 to 4 µg/mL

====

Each entry below lists one item and its recorded MIC value.
test system: P. aeruginosa CDC-0095; assay: microbe, parasite or virus in culture; type: cell-based; conditions: Pseudomonas aeruginosa, CDC0095, read-out: Minimum inhibitory concentration, P. aeruginosa CDC-0095

Example molecules with recorded MIC:
INSERT INTO results (molecule, experimental_endpoint, measured_result) VALUES
  ('O=C(NCCCN1CCN(C(=O)NC(C(=O)N[C@H]2Cc3ccc(F)c(C(=O)O)c3OB2O)c2cc(F)c(O)c(O)c2Cl)C1=O)c1ccncc1 (some centres unmarked) [Example 256]', 'MIC', '2 to 4 µg/mL'),
  ('O=C(NCCS(=O)(=O)N1CCN(C(=O)NC(C(=O)N[C@H]2Cc3ccc(F)c(C(=O)O)c3OB2O)c2cc(F)c(O)c(O)c2Cl)C1=O)Nc1ccc(O)cc1 (some centres unmarked) [Example 289]', 'MIC', '2 to 4 µg/mL'),
  ('O=C(O)c1c(F)ccc2c1OB(O)[C@@H](NC(=O)C(NC(=O)N1CCN(C3CCN(C(=O)Nc4cc(O)c(F)cc4Cl)CC3)C(=O)C1=O)c1cc(F)c(O)c(O)c1Cl)C2 (some centres unmarked) [Example 490]', 'MIC', '2 to 4 µg/mL'),
  ('O=C(NCCCN1CCN(C(=O)NC(C(=O)N[C@H]2Cc3ccc(F)c(C(=O)O)c3OB2O)c2cc(F)c(O)c(O)c2Cl)C(=O)C1=O)c1cccc(O)c1 (some centres unmarked) [Example 204]', 'MIC', '< 1 µg/mL');

Item under review: O=C(O)c1cccc2c1OB(O)[C@@H](NC(=O)[C@H](NC(=O)N1CCN(Cc3cc(F)c(O)c(O)c3Cl)C(=O)C1=O)c1ccc(P(=O)(O)O)cc1)C2 [Example 504] . Reported MIC?
< 1 µg/mL

Data origin, for the record: patent US20240270762A1
